biological target: T. cruzi proteasome (Trypanosoma cruzi, UniProt V5BU39+V5C017); test: T. cruzi proteasome assay (chymotrypsin-like activity, Suc-LLVY-Rho-110-DPro); conditions: read-out: Tc Prot Max Response (%), individual replicate
Sequence (V5BU39 entry or part of it): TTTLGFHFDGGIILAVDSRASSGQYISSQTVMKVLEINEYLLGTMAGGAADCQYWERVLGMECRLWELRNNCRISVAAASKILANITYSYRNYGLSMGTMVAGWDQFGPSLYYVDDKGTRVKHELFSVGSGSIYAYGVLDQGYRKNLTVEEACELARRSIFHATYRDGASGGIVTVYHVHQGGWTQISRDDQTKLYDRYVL
Sequence (V5C017 entry or part of it): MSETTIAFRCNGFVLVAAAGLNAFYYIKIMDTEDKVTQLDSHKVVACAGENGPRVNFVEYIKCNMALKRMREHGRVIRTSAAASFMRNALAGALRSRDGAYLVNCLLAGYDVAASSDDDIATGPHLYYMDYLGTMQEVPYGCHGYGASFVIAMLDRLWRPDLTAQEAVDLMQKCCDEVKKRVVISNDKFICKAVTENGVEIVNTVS
Please go through the items and note down their Emax.
Supply the numeric figure in %, leaving out any unit text.

GET /values?readout=Emax&item= COc1ccc(Cn2nc(C(=O)Nc3ccc(F)c(C(=O)NC4CC4)c3)ccc2=O)cc1Cl
80

GET /values?readout=Emax&item= O=C(Nc1ccc(F)c(C(=O)NC2CC2)c1)c1ccc(=O)n(Cc2ccc(Cl)c(F)c2)n1
80

GET /values?readout=Emax&item= O=C(Nc1ccc(F)c(-c2cn3nc(N4CCOCC4)cnc3n2)c1)N1CCCC1
91

GET /values?readout=Emax&item= COc1ccc(Cn2nc(C(=O)Nc3ccc(F)c(C(=O)NCCN4CCOCC4)c3)ccc2=O)cc1F
72

GET /values?readout=Emax&item= COc1ccc(Cn2nc(C(=O)Nc3ccc(F)c(C(=O)N[C@H]4C[C@H](N5CCOCC5)C4)c3)ccc2=O)cc1F
88

GET /values?readout=Emax&item= O=C(Nc1cccc(C(=O)NC2CC2)c1)c1ccc(=O)n(Cc2ccccc2)c1
80

GET /values?readout=Emax&item= COc1ccc(Cn2nc(C(=O)Nc3ccc(F)c(C(=O)N[C@H]4C[C@H](OC)C4)c3)ccc2=O)cc1
78

GET /values?readout=Emax&item= O=C(Nc1ccc(F)c(C(=O)NC2CC2)c1)c1ccc(=O)n(Cc2ccccc2)n1
71
